# Method summary: AUC (0 to 24 hrs) in rat at 100 mg/kg, po
# Format: ADME, organism-based
# Design: time < 24 hr, dose 100 mg/kg, route oral
# Measurement setup: plasma
Endpoint: AUC(0-t) at 24 h (µM·h)

item_smiles=NC(=O)c1cnc(-c2cnc3c(Nc4ccc(C(F)(F)F)cn4)ccnc3n2)c(C(F)(F)F)c1 reading_unit=µM·h readout_value=268

====

# Method summary: Cmax in rat at 10 mg/kg, po
# Format: ADME, organism-based
# Design: dose 10 mg/kg, route oral
# Measurement setup: in vivo
Endpoint: Cmax (nM)

item_smiles=NC(=O)c1cnc(-c2cnc3c(Nc4ccc(C(F)(F)F)cn4)ccnc3n2)c(C(F)(F)F)c1 endpoint=Cmax reading_unit=nM readout_value=2100

====

# Method summary: Plasma concentration in rat complete Freund's adjuvant-induced inflammation model at 1 mg/kg, po QD for 3 consecutive days measured at 2 hrs post dose on day 1
# Format: ADME, organism-based
# Set-up: dose 1 mg/kg, route oral
Endpoint: concentration at 2 h (nM)

item_smiles=NC(=O)c1cnc(-c2cnc3c(Nc4ccc(C(F)(F)F)cn4)ccnc3n2)c(C(F)(F)F)c1 endpoint="concentration at 2 h" readout_value=270
